- System: K-562 cells
- method notes: Cytotoxic MTT assay, K-562
- Type: cell-based
- assay context: Homo sapiens, K562; K-562, MTT, 48 h, mean ± SD of two independent experiments
pIC50: −log10 of the molar value.
List of pIC50 values.

compound	system name	pIC50
CC1C(=O)CCC2C1(C)CCC1C2(C)CCC2(C)C3CC(C)(C)CCC3(CO)CC(=O)C12C (stereo not shown) [Compound 1, 28-hydroxyfriedelane-3,15-dione]	K-562 cells	3.59
C[C@H]1C(=O)CC[C@@H]2[C@]1(C)CC[C@H]1[C@@]2(C)CC[C@@]2(C)[C@@H]3CC(C)(C)CC[C@]3(C)CC(=O)[C@]12C	K-562 cells	3.23
C[C@H]1C(=O)CC[C@@H]2[C@]1(C)CC[C@H]1[C@@]2(C)CC[C@@]2(C)[C@@H]3CC(C)(C)CC[C@]3(CO)CC[C@]12C [Compound 6, 28-hydroxyfriedelan-3-one]	K-562 cells	3.50
C[C@H]1C(=O)CC[C@@H]2[C@]1(C)CC[C@H]1[C@@]2(C)CC[C@@]2(C)[C@@H]3C[C@@](C)(CO)CC[C@]3(C)CC[C@]12C [Compound 7, 30-hydroxyfriedelan-3-one]	K-562 cells	3.44

----------
Consider the following compounds and their measured EC50 readings.
- System: MHV-3
- method notes: Antiviral MTT assay against MHV-3 in L929 cells (EC50)
- Assay type: cell-based, mouse hepatitis virus 3 (murine coronavirus)
- assay context: Murine coronavirus; MHV-3 in L929 cells, MOI 0.1, MTT; NA: not active

compound	sign qualifier	EC50 [µM]
CC1C(=O)CCC2C1(C)CCC1C2(C)CCC2(C)C3CC(C)(C)CCC3(CO)CC(=O)C12C (stereo not drawn) [Compound 1, 28-hydroxyfriedelane-3,15-dione]	=	69
NC(=O)c1ncn([C@@H]2O[C@H](CO)[C@@H](O)[C@H]2O)n1 [ribavirin, reference compound]	<	10
C[C@H]1C(=O)CC[C@@H]2[C@]1(C)CC[C@H]1[C@@]2(C)CC[C@@]2(C)[C@@H]3CC(C)(C)CC[C@]3(CO)CC[C@]12C [Compound 6, 28-hydroxyfriedelan-3-one]	=	2.9
